The following binders are listed with their measured kon values.
Tested system: recombinant factor H binding protein (FHbp) ID 1 (Neisseria meningitidis serogroup B …, UniProt Q9JXV4)
Sequence (Q9JXV4 20-274): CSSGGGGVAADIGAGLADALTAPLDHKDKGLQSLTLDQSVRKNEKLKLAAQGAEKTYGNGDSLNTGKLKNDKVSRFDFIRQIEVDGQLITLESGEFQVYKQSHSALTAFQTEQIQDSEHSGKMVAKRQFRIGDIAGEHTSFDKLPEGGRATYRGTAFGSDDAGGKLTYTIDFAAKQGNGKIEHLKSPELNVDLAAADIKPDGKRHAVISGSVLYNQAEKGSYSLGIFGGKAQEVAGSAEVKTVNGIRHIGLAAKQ
Experimental details: SPR
For clarity, give the value followed by its unit.

# annotated cases, reported kon shown
human anti-FHbp Fab 3C (Fab, V domains shown) VH: QVQLQESGPGLVKPSETLSLTCTVSGYSITRGYYWGWIRQPPGKGLEWIGGIYHSGTTYQNPSLRSRVTFSVDTSKNQFSLKLRSVTAADTAVYYCARDNYSSNLDYWGQGTMVTVSS VL: EIVLTQSPGTLSLSPGERATLSCRASQSVSSSYLAWYQQKAGQAPRLLIYGASSRATGIPERFSGSGSGTDFTLTISRLEPEDFAIYYCQQYGSSRFIFGPGTKVDIK | 30000 M⁻¹ s⁻¹
human anti-FHbp Fab 10C (Fab, V domains shown) VH: QVQLVESGGGVVQPGRSLRLSCPASGFTFSRYALHWVRQAPGKGLEWVAVISFDGSFKYYADSVKGRFSISRDNFKNTLYLQMNSLRAEDTAVYYCAKDDTLHASGWGGFDYWGQGALVTVSS VL: EIVLTQSPATLSLSPGERATLSCRASQSVTSYLTWYQHKPGQAPRLLIYHTSYRATGIPARFSGSGSGTDFTLSITSLEPEDFAVYYCQQRSNWPFTFGPGTKVDIK | 930000 M⁻¹ s⁻¹

--- query ---
Q) Which kon is listed for human anti-FHbp Fab 9B (Fab, V domains shown) VH: EVQLVQSGAELKKPGESLKISCKASGYTFTNYWVVWVRQMPGEGLEWMGSIHPRDSDARYSLSFEGRVTFSVDKSTTTAYLQWSSLKVSDSAIYYCARLSQVSGWSPWVGPWGQGTLVTVSS VL: DIVMTQSPSSLSASVGDRVTITCRASQSISVSLNWYQQKPGKAPKVLIYAASRLQSGIPSRFSGSGSGSHFTLTISSLQPEDFATYYCQETYSDLMYTFGQGTKVEIK ?
A) 1.85e+06 M⁻¹ s⁻¹
